B1: TPR t1 (parent)
chain: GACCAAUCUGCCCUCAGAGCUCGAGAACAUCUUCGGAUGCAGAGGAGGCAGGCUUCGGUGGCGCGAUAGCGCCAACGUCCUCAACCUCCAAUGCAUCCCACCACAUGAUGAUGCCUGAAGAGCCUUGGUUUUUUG

Variants of: B1
experiment_notes: polymerase ribozyme fitness, log enrichment relative to wild type (log ratio); higher = more active; in vitro selection for triplet polymerase activity
Criterion: polymerase ribozyme fitness (log ratio) meeting or surpassing -2. Met: Condition met. Not met: Condition not met.

Given the entry GACCACUCUGCCCUCAGAGCUCGAGAACAUCUUCGGAUGCAGAGGAGGCAGGCUUCGGUGGCGCGAUAGCGCGAACGUCCUCAACCUCCAAUGCAUCCCACCACAUGAUGAUGCCUGAAGAGCCUUGGUUUUUUG , answer whether its polymerase ribozyme fitness (log ratio) meets or surpasses -2.
Condition met

Given the entry GACCAAUGUGCCCUCAGAGCUCGAGAACAUCCUCGGAUGCAGAGGAGGCAGGCUUCGGUGGCGCGAUAGCGCCAACGUCCUCAACCUCCCAUGCAUCCCACCACAUGAUGAUGCCUGAAGAGCCUUGGUUUUUUG , answer whether its polymerase ribozyme fitness (log ratio) meets or surpasses -2.
Condition met

Given the entry GACCAAUCUGCCCUCAGAGCUCGAGAACAUCUUCGGAUGUAGAGGAGGCCGGCUUCGGUGGCGCGAUAGCGCCAAGCUCUUCAACCUCCAAUGCAUCCCACCACAUGAUGAUGCCUGAAGAGCCUUGGUUGUUUG , answer whether its polymerase ribozyme fitness (log ratio) meets or surpasses -2.
Condition not met

Given the entry GACCAAUCUGCCCUCAGAGCUCGAGAACGUCUUCGGAUGCAGAGGAGGAAGGCUUCGGUGGCGCGAUAGCGCCAACGUCCUCAACCUCCAAUGCAUCCCACCACAUGAUGAUGCCUGAAGAGCCUUGGUUUUUUG , answer whether its polymerase ribozyme fitness (log ratio) meets or surpasses -2.
Condition met

Given the entry GACCAAUCUGCCCUCAGAGCUCGAGAACAUCUUCGGAUGCAGAGGAGGCAGGCUUCGGUGGCGCGAUAGUGCCAACGGCCUCAACCUCCAAUGCAUCCCACCACAUGAUGAUGCCGGAAGAGCCUUGGUUUUUUG , answer whether its polymerase ribozyme fitness (log ratio) meets or surpasses -2.
Condition not met

Given the entry GACCAAACUGCGCUCAGAGCUCGAGAACAUCUUCGGAUGCAGAGGAGGCAGGCUUCGGUGGCGCGAUAGCGCCAACGUCCUCAACCUCGAAUGCAUCCCACCACAUGAUGCUGCCUGAAGAGCCUUGGUUUUUUG , answer whether its polymerase ribozyme fitness (log ratio) meets or surpasses -2.
Condition not met

Given the entry GACCAAUCUGCCCUCAGAACUCGAGAACAUCUUCGGAUGCAGAGGAGGCAGGCUUCGGUGGCGCGAUAGCGCCAACGUCCUCAACCUCCAAUGCAUCCCACCACAUGAUGAUGACUGAAGAGCCUUGGUUUUUUG , answer whether its polymerase ribozyme fitness (log ratio) meets or surpasses -2.
Condition met

Given the entry GACCAAUCUGCCCUCAGAGCUCGAGAACAUCUUCGGAUGCAGAGGAGGCAGGCCUCGGUGGCGCGAUAGCGCCAACGUCCUCAACCACCAAUGCUUCCCACCACAUGAUGAUGCCUGAAGAGCCUUGGUAUUUUG , answer whether its polymerase ribozyme fitness (log ratio) meets or surpasses -2.
Condition not met

Given the entry GACCAAUCUGCCCUCAGAGCUCGAGAACAUCUUCGGAUUCAGAGGAGGCAGGCUUCGGUGGCGCGAUAGCGCCAACGUCCUCAAACUCCGAUGCAUCCCACCACAUGAUGAUGCCUGAUGAGGCGUGGUUUUUUG , answer whether its polymerase ribozyme fitness (log ratio) meets or surpasses -2.
Condition met

Given the entry GACCAAUCUGCCCUCACAGCUCGAGAACAUCUUCGGAUGCAGCGGAGGCAGGCUUCGGUGGCGCGAUAGCGCCAACGUCCUCUACCUCCAAUGCAUCCCACCACAUGAUGAUGCCUGAAGAGCCUUGGUUUUUUG , answer whether its polymerase ribozyme fitness (log ratio) meets or surpasses -2.
Condition not met

Given the entry GACCAAUCUGCCCUCAGAGCUCGAGAACAUCUUCGGAUGCAGAGGAGGCAGGCUUCGGUGGCGCGAUAGCGCCAACGUCCUCAACCUCCAAUGCAUCCCACCACAAGAUGAUGCCUUAAGAGCCUUUGUUUUUUG , answer whether its polymerase ribozyme fitness (log ratio) meets or surpasses -2.
Condition met

Given the entry GACCAAUCUGCCCUCAGAGCUCGAGAACAUCUUCGGAUGCAGAGGAGGCAGGCUUCGGUGGCGCGAUAGCGCCAACGUCCACAACCUCCAAUGCAUCCCACCACAUGAUGAUGCCUGAAAAGCCUUGGUUUUUUG , answer whether its polymerase ribozyme fitness (log ratio) meets or surpasses -2.
Condition met

Given the entry GACCAAUCUGCCAUCAGAGCUCGAGAACAUCUUCGGAUGCAGAGGACGCAGGCUUCGGUGGCGCGAUAGCGCCAACGUCCUCAACCUCCAAUGCAUCCCACCACAUGAUGAUGCCUGAAGAGCCUUGGUUUUUUG , answer whether its polymerase ribozyme fitness (log ratio) meets or surpasses -2.
Condition not met

Given the entry GACCAAUCUGCCCUGAGAGCUCGAGAACAUCUUCGGAUGCAGAGGAGGUAGGCUUCGGUGGCGCGAUAGCGCCAACGACCUCAACCUCCAAUGCAUCCCACCACAUGAUGAUGCCUGAAGAGCCGUGGUUUUUUG , answer whether its polymerase ribozyme fitness (log ratio) meets or surpasses -2.
Condition not met

Given the entry GACCAAUCUGCCCUCAGAGCUCGAGAACAUCUUCGGAUGCAGAGGAGGCAGGCUUCGGUGGCGUGAUAGCGUCAACGUCCUCAACCUCCAAUGCAUCCCACCACAGGAUGAUGCCUGAAGAGCCUUCGUUUUUUG , answer whether its polymerase ribozyme fitness (log ratio) meets or surpasses -2.
Condition not met

Given the entry GACCAAUCUGCCCUGAGAGCUCGAGAACAUCUUCGGAUGCAGUGGAGGCAGGCUUUGGUGGCGCGAUAGCGCCAACGUCCUCAACCUCCAAUGCAUCCCACCACAUGAUGAUGCCUGAAGAGCCUUGGUUUUUUG , answer whether its polymerase ribozyme fitness (log ratio) meets or surpasses -2.
Condition not met

Given the entry GACCAAUCUGACCUUAGAGCUCGAGAACAUCUUCGGAUGCAGAUGAGGCAGGCUUCGGUGGCGCGAUAGCGACAACGUCCUCAACCUCCAAUGCAUCCCACCACAUGAUGAUGCCUGAAGAGCCUUGGAUUCUUG , answer whether its polymerase ribozyme fitness (log ratio) meets or surpasses -2.
Condition not met

Given the entry GACCAAUCUGCCCUCAGAGCUCGAGAACAUCUUCGGAUGCAGAGGAGGCAGGCGUCGGUGACGCGAUAGCGCCAACGUCAUCAACCUCCAAUGCAUCCCACCACAUGAUGAUGCCUGAAUAGCCUUGGUUUUUUG , answer whether its polymerase ribozyme fitness (log ratio) meets or surpasses -2.
Condition not met

Given the entry GACCAAUCUGCCCUUAGAGCUCGAGAACAUCUUCGGAUGCAGAGGAGGCAGGCUUCGGUGGCGCGAUAGCGCUCACGUCCUCAACCUCCAAUGCAUCCCACCACAUGAUGAUGCCUGAAGAGCCUUGGUUUUUUG , answer whether its polymerase ribozyme fitness (log ratio) meets or surpasses -2.
Condition met

Given the entry GACCAAUCUGCCCUCAGAGCUCGAGAACAUCUUCGGAUGCAGAGGAGGCAGGCUUCUGUGGCGCGAUAGCGCCAACGUCCUCAACCUCCAAUGCAUCCCACCACGUGAUGAUACCUGAAGAGCCUUGGUUUUUUG , answer whether its polymerase ribozyme fitness (log ratio) meets or surpasses -2.
Condition not met

Given the entry GACCAAUUUGGCCUCAGAGCUCGAGAACAUCUUCGGAUGCAGAGGAGGCAGGCUUCGGUGGCGCGAUAGCGCCAACGUCCUCAACCUCCAAUACAUCCCACCACAUGAUGAUGCCUGAAGAGCCUUGGUUUUUUG , answer whether its polymerase ribozyme fitness (log ratio) meets or surpasses -2.
Condition met

Given the entry GACCAUUCUGCCCUCAGAGCUCGAGAACAUCUUCGGAUACAGAGGAGGCAGGCUUCGGUGGCGCGAUAGCGCCCACGUCCUCAACCUCCAUUGCAUCCCACCACAUGAUGAUGCCUGAAGAGCCUUGGUUUUUUG , answer whether its polymerase ribozyme fitness (log ratio) meets or surpasses -2.
Condition not met
